Biological target: Mineralocorticoid receptor (Homo sapiens, UniProt P08235)
Sequence (P08235 whole entry): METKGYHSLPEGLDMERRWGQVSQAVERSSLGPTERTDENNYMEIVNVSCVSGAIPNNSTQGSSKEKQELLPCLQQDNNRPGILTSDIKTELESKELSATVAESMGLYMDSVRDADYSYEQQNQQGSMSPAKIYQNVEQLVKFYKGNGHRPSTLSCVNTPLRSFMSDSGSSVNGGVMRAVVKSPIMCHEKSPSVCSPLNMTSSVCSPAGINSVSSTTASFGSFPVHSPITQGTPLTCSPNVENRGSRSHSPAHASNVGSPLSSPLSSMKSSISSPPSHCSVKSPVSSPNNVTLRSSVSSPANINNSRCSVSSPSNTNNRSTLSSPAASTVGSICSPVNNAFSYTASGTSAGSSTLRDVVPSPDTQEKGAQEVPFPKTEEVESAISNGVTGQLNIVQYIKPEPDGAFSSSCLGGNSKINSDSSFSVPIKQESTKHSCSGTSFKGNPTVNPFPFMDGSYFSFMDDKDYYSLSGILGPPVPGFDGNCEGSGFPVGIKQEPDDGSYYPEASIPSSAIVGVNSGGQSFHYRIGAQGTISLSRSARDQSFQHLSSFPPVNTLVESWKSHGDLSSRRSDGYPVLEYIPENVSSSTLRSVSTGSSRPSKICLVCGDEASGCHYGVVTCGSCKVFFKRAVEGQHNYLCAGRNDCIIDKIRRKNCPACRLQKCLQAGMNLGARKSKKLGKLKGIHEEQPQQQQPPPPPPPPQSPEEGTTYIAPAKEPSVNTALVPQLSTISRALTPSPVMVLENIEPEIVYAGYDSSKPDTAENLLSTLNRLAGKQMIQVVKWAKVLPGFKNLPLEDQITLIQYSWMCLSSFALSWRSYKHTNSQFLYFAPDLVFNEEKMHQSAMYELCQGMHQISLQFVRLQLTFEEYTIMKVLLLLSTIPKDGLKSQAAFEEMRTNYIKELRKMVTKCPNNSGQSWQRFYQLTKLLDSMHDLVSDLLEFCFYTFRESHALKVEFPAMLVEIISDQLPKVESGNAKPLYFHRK
Assay: Affinity for recombinant Mineralocorticoid receptor
Settings: read-out: Kd app
quantity: Kd (nM)

query: Quick one: Kd of CC(=O)C1CC[C@H]2[C@@H]3CCC4=CC(=O)CCC4(C)[C@H]3CCC12C(=O)[CH-][N+]#N (stereo partly drawn) ?
result: 20

(P) CC12CCC(=O)C=C1CCC1C2CCC2(C)C(C(=O)C=[N+]=[N-])CCC12 (stereo not drawn)
(Q) C[C@@H](O)C1CC[C@H]2[C@@H]3CCC4=CC(=O)CCC4(C)[C@H]3CCC12C(=O)C=[N+]=[N-] (stereo partly drawn)
query: Endpoint returns whichever of P and Q has the numerically higher Kd. // return label of chosen record
result: Q
(Q: 20 nM, P: 0.74 nM)

The values you see were collected from ChEMBL document CHEMBL1129684.
